# study system: 5HT-Transporter (Homo sapiens)
# Construct: Human platelet membranes (Oceanix Biosciences Corporation, Hanover, Md., USA) were thawed; tissue Oceanix Biosciences Corporation, Hanover, Md., USA; host or cells: human platelet membranes
# Sequence (P31645 whole entry): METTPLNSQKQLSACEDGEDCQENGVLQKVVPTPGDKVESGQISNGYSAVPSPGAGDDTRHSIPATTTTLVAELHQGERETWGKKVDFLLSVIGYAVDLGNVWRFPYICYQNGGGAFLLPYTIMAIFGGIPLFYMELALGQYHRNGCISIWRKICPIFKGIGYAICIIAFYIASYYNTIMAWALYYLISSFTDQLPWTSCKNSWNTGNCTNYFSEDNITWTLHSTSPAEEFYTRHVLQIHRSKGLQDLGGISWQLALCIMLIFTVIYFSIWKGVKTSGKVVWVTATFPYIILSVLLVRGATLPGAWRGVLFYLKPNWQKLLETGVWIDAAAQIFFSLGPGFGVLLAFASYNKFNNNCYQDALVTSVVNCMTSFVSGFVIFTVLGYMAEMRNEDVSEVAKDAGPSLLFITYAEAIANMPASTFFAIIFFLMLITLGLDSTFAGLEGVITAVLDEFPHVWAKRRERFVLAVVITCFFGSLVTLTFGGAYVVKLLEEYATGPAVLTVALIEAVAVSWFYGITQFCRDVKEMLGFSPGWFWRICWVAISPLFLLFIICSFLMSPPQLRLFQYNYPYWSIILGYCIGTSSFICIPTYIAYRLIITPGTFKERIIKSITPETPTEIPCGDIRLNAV
# method description: Binding experiment for the 5HT-transporter ([3H]paroxetine, human platelet membranes)
# applied conditions: [3H]paroxetine 0.5 nM, read-out: h-5HTT pIC50 (converted)
readout type: IC50 (µM)
Express your answer in µM, writing the number without its unit.

Identify the measured IC50 of C/C(=C\c1ccccc1)CN1CCC(Nc2nccn(CC(=O)N(C)CCN(C)C)c2=O)CC1 for 5HT-Transporter (Homo sapiens).
6.31

Now give it for COC(=O)C1CCN(C(=O)c2ccc(-n3ccnc(NC4CCN(C/C(C)=C/c5ccccc5)CC4)c3=O)cc2)CC1 too.
0.501

Now give it for C/C(=C\c1ccccc1)CN1CCC(Nc2nccn(CC(=O)OCc3ccccc3)c2=O)CC1 too.
3.98

Now give it for C/C(=C\c1ccccc1)CN1CCC(N(C)c2nccn(Cc3ccc(CN)cc3)c2=O)CC1 too.
0.501

Now give it for C/C(=C\c1ccccc1)CN1CCC(Nc2nccn(Cc3ccc(CNS(=O)(=O)/C=C/c4ccccc4)cc3)c2=O)CC1 too.
0.631

Now give it for CNCCCn1ccnc(NC2CCN(C/C(C)=C/c3ccccc3)CC2)c1=O too.
3.98

Now give it for CCOC(=O)CCCCn1ccnc(NC2CCN(C/C(C)=C/c3ccccc3)CC2)c1=O too.
0.794

Now give it for C/C(=C\c1ccccc1)CN1CCC(Nc2nccn(CCCN)c2=O)CC1 too.
2

Hello, the source for this data is patent US20090111801A1, in case you need it.
